tested on: UACC-62 melanoma; assay: NCI-60 one-dose screen, 48 h (100 = growth as untreated, 0 = no growth, -100 = all killed); settings: 10 µM unless noted
This is part of a sample that, as a whole, favours compounds with a hit. Of some 83,000 tested, about 20% had one in any assay. Calls of active or inactive are those of the source. How the source made its calls: active means growth percent below 10; inactive means the rest.
measure name: growth

Look over these answered cases.
1) C[C@]12CC[C@H]3[C@@H](C[C@@H]4N=C(c5ccc(O)cc5)S[C@@]45C[C@H](O)CC[C@]35C)[C@@H]1CC[C@@H]2O; 28.7% (inactive)
2) COC(=O)C(=[N+]=[N-])C(=O)OC; 95.3% (inactive)
3) O=C(O)CNC(=O)c1ccccc1; 103% (inactive)
4) Cc1ccccc1O; 107% (inactive)
5) O=C1NC(=S)NC(=O)C1=Cc1ccccc1; 106% (inactive)
6) COP(=S)(OC)Oc1ccc(SC)c(C)c1; 95.5% (inactive)

*Q* Look at this compound and give its reported growth. CCCCCN1C(=O)C(CO)N=C(c2cccc(O)c2)c2ccccc21 (stereo unspecified)
*A* 81.1% [30 µM] (inactive)

*Q* Look at this compound and give its reported growth. O=c1[nH]c2cc(Cl)ccc2n1C1CCN(CCCC(c2ccc(F)cc2)c2ccc(F)cc2)CC1
*A* 39.7% (inactive)

*Q* Look at this compound and give its reported growth. S=P(Nc1ccccc1)(Nc1ccccc1)c1ccccc1
*A* 84.2% (inactive)

*Q* Look at this compound and give its reported growth. COc1cc(CNCCc2ccc(Cl)cc2)cc(OC)c1O
*A* 61.2% (inactive)
